test: Rodent pharmacokinetic study; assay type: in vivo, Male Wistar rats; settings: male, Wistar, iv; rat, i.v. 1 mg/kg, plasma
Parameter measured: AUC(0-t) (ng·h/mL)

Known AUC(0-t) results, listed for orientation:
Cc1c(Cc2cccc(F)c2F)cc(C(=O)N[C@H]2CCCC[C@@H]2O)c2ncccc12 : 367
Cc1c(Cc2ccnc(Cl)c2)cc(C(=O)N[C@H]2CCCC[C@@H]2O)c2ncccc12 : 492
Cc1c(Cc2ccc(-c3cnn(C)c3)cc2)cc(C(=O)N[C@H]2CCCC[C@@H]2O)c2ncccc12 : 6860
Cc1c(Cc2ccc(-c3cnn(C)c3)cc2F)cc(C(=O)N[C@H]2CCCC[C@@H]2O)c2ncccc12 : 12800
Cc1c(Cc2ccc(-n3cccn3)cc2)cc(C(=O)N[C@H]2CCCC[C@@H]2O)c2c1NCCO2 : 635

(1) Cc1c(Cc2ccc(Cl)nc2)cc(C(=O)N[C@H]2CCCC[C@@H]2O)c2ncccc12
(2) Cc1c(Cc2ccc(-c3cnn(C)c3)c(F)c2F)cc(C(=O)N[C@H]2CCCC[C@@H]2O)c2ncccc12
(3) Cc1c(Cc2ccccc2)cc(C(=O)N[C@H]2CCCC[C@@H]2O)c2ncccc12
Put the compounds in ascending order of AUC(0-t). Reply: labels, ordered per the request.
3, 1, 2
(3: 346 ng·h/mL, 1: 664 ng·h/mL, 2: 6150 ng·h/mL)

----------
assay: Rodent pharmacokinetic study; assay type: in vivo, Male Wistar rats; details: male, Wistar, iv; rat, i.v. 1 mg/kg, plasma
Parameter measured: half-life (h)

Cc1c(Cc2ccc(-c3cnn(C)c3)cc2)cc(C(=O)N[C@H]2CCCC[C@@H]2O)c2ncccc12 [Example 15] : 3.1
Cc1c(Cc2ccccc2)cc(C(=O)N[C@H]2CCCC[C@@H]2O)c2ncccc12 [Example 14] : 0.8
Cc1c(Cc2ccnc(Cl)c2)cc(C(=O)N[C@H]2CCCC[C@@H]2O)c2ncccc12 [Example 1] : 1.3
Cc1c(Cc2ccc(Cl)nc2)cc(C(=O)N[C@H]2CCCC[C@@H]2O)c2ncccc12 [Example 6] : 1.5
Cc1c(Cc2ccc(-n3cccn3)cc2)cc(C(=O)N[C@H]2CCCC[C@@H]2O)c2c1NCCO2 [Example 17] : 1.3

(P) Cc1c(Cc2cccc(F)c2F)cc(C(=O)N[C@H]2CCCC[C@@H]2O)c2ncccc12 [Example 2]
(Q) Cc1c(Cc2ccc(-c3cnn(C)c3)c(F)c2F)cc(C(=O)N[C@H]2CCCC[C@@H]2O)c2ncccc12 [Example 8]
For the pair P and Q , which member has the lower half-life number? // caller expects the label of the chosen entry
P

----------
test: Rodent pharmacokinetic study; type: in vivo, Male Wistar rats; conditions: male, Wistar; rat, oral 3 mg/kg, plasma
Parameter measured: half-life (h)

Cc1c(Cc2ccc(-c3cnn(C)c3)c(F)c2F)cc(C(=O)N[C@H]2CCCC[C@@H]2O)c2ncccc12 : 3.6
Cc1c(Cc2ccc(-n3cccn3)cc2)cc(C(=O)N[C@H]2CCCC[C@@H]2O)c2c1NCCO2 : 1.3
Cc1c(Cc2ccc(-c3cnn(C)c3)cc2F)cc(C(=O)N[C@H]2CCCC[C@@H]2O)c2ncccc12 : 4.8
Cc1c(Cc2ccc(Cl)nc2)cc(C(=O)N[C@H]2CCCC[C@@H]2O)c2ncccc12 : 1.3

(1) Cc1c(Cc2ccnc(Cl)c2)cc(C(=O)N[C@H]2CCCC[C@@H]2O)c2ncccc12
(2) Cc1c(Cc2ccccc2)cc(C(=O)N[C@H]2CCCC[C@@H]2O)c2ncccc12
Endpoint returns whichever of 1 and 2 has the numerically higher half-life. I would appreciate it if you answered with the label of your choice.
2
(2: 1.9 h, 1: 1.1 h)

(I) Cc1c(Cc2ccc(-c3cnn(C)c3)cc2)cc(C(=O)N[C@H]2CCCC[C@@H]2O)c2ncccc12
(II) Cc1c(Cc2cccc(F)c2F)cc(C(=O)N[C@H]2CCCC[C@@H]2O)c2ncccc12
Quick one: lower half-life, I or II ? In your reply, give the label of the chosen option.
II
(II: 2 h, I: 3.7 h)
